Some binders, each annotated with its measured binding signal.
- targetOrSystem: hSSB1 (Homo sapiens, UniProt Q9BQ15 Q9BQ15:1-211)
- Sequence (Q9BQ15 whole entry, one chain of several): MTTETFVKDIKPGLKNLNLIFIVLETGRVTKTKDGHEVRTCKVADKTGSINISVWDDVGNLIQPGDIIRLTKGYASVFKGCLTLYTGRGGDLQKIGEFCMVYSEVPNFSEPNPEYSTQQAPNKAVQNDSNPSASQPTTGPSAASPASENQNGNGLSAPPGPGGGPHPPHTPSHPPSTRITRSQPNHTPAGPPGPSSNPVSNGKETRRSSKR
- procedureDetails: SPR; LSA_In3E3 = 1
Provide the reading as a plain figure in normalized Rmax.

(Q) Value lookup for binding signal; key = CCAGUGAGCCGGACUUGC (ssRNA, 2'-OMe all, PS all) [In3E3 3' truncation 18 nt]
(A) 0.67

(Q) And CGUGUCAUCCGCUCUCGACU (ssRNA, 2'-OMe all, PS all) [LSA_In3E3_CT4] ?
(A) 0.8

(Q) And CACGUACCUUAGUGCCUCAC (ssRNA, 2'-OMe all, PS all) [Open_L_1] ?
(A) 0.8

(Q) And CCAGUGAGCCGGACUUGCCU (ssRNA, PS all, no sugar modification) [In3E3 PS only (DKLS426690)] ?
(A) 0.99
